# aptazyme ON/OFF ratio per record follows
B1: Pistol ribozyme (parent)
chain: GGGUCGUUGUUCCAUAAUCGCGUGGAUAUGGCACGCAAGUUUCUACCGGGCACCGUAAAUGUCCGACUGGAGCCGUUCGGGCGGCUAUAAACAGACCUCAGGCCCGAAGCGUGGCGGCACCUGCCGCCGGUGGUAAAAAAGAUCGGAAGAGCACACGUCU

Variants of: B1
ASSAY EXPLANATION: aptazyme ON/OFF ratio, guanine; higher = stronger switching; co-transcriptional cleavage with and without guanine
Write the number on its own, no unit after it.

Some entries whose results are on file:
[[record]]
mutant_id = "U7A U8C G9A U10G U11A C12G C13A"
obs_value = 1.11

[[record]]
mutant_id = "U7A U8C U10A U11C C12G"
obs_value = 1.1

[[record]]
mutant_id = "U7G U8A U10C U11A C12U C13A"
obs_value = 1.3

[[record]]
mutant_id = "U7C U8C U10A U11G C12G"
obs_value = 1.41

[[record]]
mutant_id = "U7C U8A G9C U10A U11G"
obs_value = 1.29


Query U7C U8G G9A U10C U11G C12U C13G yields aptazyme ON/OFF ratio of 1.14

Query U7A U10A U11G C12A C13U yields aptazyme ON/OFF ratio of 1.17

Query U8G G9U U10A U11A C12G yields aptazyme ON/OFF ratio of 1.14

Query U7A U8A G9C C12G yields aptazyme ON/OFF ratio of 1.1

Query U7G G9U U10A U11G C12A C13A yields aptazyme ON/OFF ratio of 1.11

Query U7A U8A G9A U10C U11C C12U yields aptazyme ON/OFF ratio of 1.04

Query U7C G9A U10G U11A C12U yields aptazyme ON/OFF ratio of 1.05

Query U7C U8A G9A U10A U11G C12G yields aptazyme ON/OFF ratio of 1.12

Query U7G U8C G9U U10G U11G C12G C13U yields aptazyme ON/OFF ratio of 1.25

Query U7C U8G G9A U10A U11G yields aptazyme ON/OFF ratio of 1.33

meta.source: the RNAGym collection of RNA variant scans (doi:10.1021/acssynbio.7b00057)
